Tested on: PLA-801
TEST_METHOD_NOTES: In vitro cytotoxicity, IC50 by MTT method, PLA-801
Type: cell-based
EXPERIMENTAL_SETUP: PLA-801, MTT; read-out: IC50
Label T when IC50 is strictly below 80 µM; at or above that, label F.

Lab note: confirm whether the reported IC50 for this compound is below 80 µM, equality not counting. compound: CCNC1(C(N)=O)C=C2C(=Nc3ccccc32)C=N1 (stereo not drawn) [Compound 19, 3-ethylamino-β-carboline-3-formamide]
F

Lab note: confirm whether the reported IC50 for this compound is below 80 µM, equality not counting. compound: COc1ccc2c3ccnc(C)c3n(C)c2c1 [Compound 2, 7-methoxyl-1,9-dimethyl-β-carboline]
T

Lab note: confirm whether the reported IC50 for this compound is below 80 µM, equality not counting. compound: COC(=O)c1cc2c([nH]c3ccccc32)c(-c2ccc(OC)cc2)n1 [Compound 15]
F

###

System: HepG2
TEST_METHOD_NOTES: In vitro cytotoxicity, IC50 by MTT method, HepG2
Type: cell-based, human
EXPERIMENTAL_SETUP: Homo sapiens; HepG2 cell strain; read-out: IC50 HepG2
Let's look at some compounds and their measured pIC50.
The meaning of pIC50 here: minus log10 of the concentration in molar units.

# COMPOUND, pIC50
records = [
    ("CCCc1nc(C(=O)O)cc2c3ccccc3n(Cc3ccccc3)c12", 3.77),
]

Recorded pIC50 of CCOC(=O)c1cc2c3ccccc3n(C)c2cn1 [Compound 30, ethyl 9-methyl-β-carboline-3-carboxylate] , please.
3.82

Recorded pIC50 of CCCCn1c2ccccc2c2cc(C(=O)OCC)ncc21 [Compound 32, ethyl 9-butyl-β-carboline-3-carboxylate] , please.
3.32

Recorded pIC50 of `CCCc1nc(C(=O)O)cc2c3ccccc3n(C)c12` , please.
2.93

Recorded pIC50 of `CCCc1nc(C(=O)OCC)cc2c3ccccc3n(C)c12` , please.
4.00

Recorded pIC50 of `CCn1c2ccccc2c2cc(C(=O)O)nc(-c3ccccc3)c21` , please.
3.80

###

Let's look at some compounds and their measured Body weight of the animals, beginning, Second time.
Tested on: S180 sarcoma
EXPERIMENTAL_SETUP: S180 sarcoma; Dosage 50 (mg/ml), ip × 10qd; second time
Please format your answer as a value with the unit trailing.

# COMPOUND, ASSAY_SYSTEM, RECORDED_RESULT
data = [
    ("O=C(O)c1cc2c3ccccc3n(Cc3ccccc3)c2cn1", "S180 sarcoma", "20.6 g"),
    ("CCOC(=O)c1cc2c3ccccc3n(Cc3ccccc3)c2cn1 [Compound 33, ethyl 9-benzyl-β-carboline-3-carboxylate]", "S180 sarcoma", "18.7 g"),
    ("O=C(O)c1cc2c3ccccc3n(CCCc3ccccc3)c2cn1", "S180 sarcoma", "18.6 g"),
    ("c1ccc(Cn2c3ccccc3c3ccncc32)cc1", "S180 sarcoma", "20.4 g"),
]

Here is another compound to look at.
Recorded Body weight of the animals, beginning, Second time of CCOC(=O)c1cc2c([nH]c3ccccc32)c(C)n1 [Compound 11, ethyl 1-methyl-β-carboline-3-carboxylate] , please.
20.6 g

###

Tested on: BGC-823
TEST_METHOD_NOTES: In vitro cytotoxicity, IC50 by MTT method, BGC-823
Assay type: cell-based
EXPERIMENTAL_SETUP: Homo sapiens, BGC-823; BGC823 cell strain; read-out: IC50 BGC823
Let's look at some molecules and their measured IC50.
Give just the number in µM; leave the unit off.

# MOLECULE, ASSAY_SYSTEM, RECORDED_RESULT
records = [
    ("COC(=O)c1cc2c3ccccc3n(C)c2cn1", "BGC-823", 180),
    ("CCCCn1c2ccccc2c2cc(C(=O)OCC)ncc21 [Compound 32, ethyl 9-butyl-β-carboline-3-carboxylate]", "BGC-823", 760),
    ("CCCCOC(=O)c1cc2c3ccccc3n(CC)c2cn1 [Compound 39, butyl 9-ethyl-β-carboline-3-carboxylate]", "BGC-823", 80),
]

Recorded IC50 of `CCCc1nc(C(=O)OCC)cc2c3ccccc3n(CCCc3ccccc3)c12` , please.
1320

Recorded IC50 of `Cc1nc(C(=O)O)cc2c3ccccc3n(CCCc3ccccc3)c12` , please.
270

Recorded IC50 of `CCOC(=O)c1cc2c3ccccc3n(C)c2c(C)n1` , please.
130

Recorded IC50 of `CCCCn1c2ccccc2c2cc(C(=O)O)ncc21` , please.
120

Recorded IC50 of `CCOC(=O)c1cc2c3ccccc3n(CC)c2c(C)n1` , please.
70

Recorded IC50 of OCc1cc2c3ccccc3n(Cc3ccccc3)c2cn1 [Compound 42, 9-benzyl-3-hydroxymethyl-β-carboline] , please.
110

Recorded IC50 of `CCn1c2ccccc2c2cc(C(=O)O)nc(C)c21` , please.
1660

Recorded IC50 of `COC(=O)c1cc2c3ccccc3n(Cc3ccccc3)c2cn1` , please.
950

###

System: NIH3T3
TEST_METHOD_NOTES: In vitro cytotoxicity, IC50 by MTT method, NIH3T3
Format: cell-based
EXPERIMENTAL_SETUP: Mus musculus, NIH3T3, read-out: IC50 NIH3T3
ASSAY_METRIC: IC50 (µM)
Give just the number in µM; leave the unit off.

Recorded IC50 of `c1ccc2c(c1)[nH]c1cnccc12` , please.
20

###

Let's look at some compounds and their measured ΔTm.
Tested on: CT-DNA
TEST_METHOD_NOTES: DNA thermal denaturation, determination of ΔTm
Format: binding
EXPERIMENTAL_SETUP: 20 uM compound, CT-DNA 15 ug/ml, PE buffer pH 7.6; Tm of CT-DNA alone 61° C.
Give just the number in °C; leave the unit off.

# COMPOUND, RECORDED_RESULT
rows = [
    ("c1ccc(Cn2c3ccccc3c3ccncc32)cc1 [Compound 84, 9-Benzyl-β-carboline]", 1.5),
    ("OCc1cc2c3ccccc3n(Cc3ccccc3)c2cn1 [Compound 42, 9-benzyl-3-hydroxymethyl-β-carboline]", "−0.3"),
]

Here is another compound to look at.
Recorded ΔTm of CCOC(=O)c1cc2c3ccccc3n(Cc3ccccc3)c2cn1 [Compound 33, ethyl 9-benzyl-β-carboline-3-carboxylate] , please.
−1.2

###

Test system: Kunming mice;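 note: acute toxicity in Kunming mice grouped by sex, one intraperitoneal dose at five graded levels in Tween-80 plus 0.5% CMC-Na, deaths monitored over two weeks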
EXPERIMENTAL_SETUP: 50% male 50% female mice, 300 mg/kg, single i.p.
Let's look at some compounds and their measured Death rate.
Just the number, please.

Examples from the recorded data:
# COMPOUND, ASSAY_METRIC, RECORDED_RESULT
data = [
    ("CCOC(=O)c1cc2c3ccccc3n(Cc3ccccc3)c2cn1 [Compound 33, ethyl 9-benzyl-β-carboline-3-carboxylate]", "Death rate", 90),
    ("CCOC(=O)Nc1cc2c3ccccc3n(Cc3ccccc3)c2cn1", "Death rate", 50),
    ("CCOC(=O)c1cc2c([nH]c3ccccc32)c(C)n1 [Compound 11, ethyl 1-methyl-β-carboline-3-carboxylate]", "Death rate", 100),
]

Here is another compound to look at.
Recorded Death rate of `c1ccc(Cn2c3ccccc3c3ccncc32)cc1` , please.
30

###

Test system: PLA-801
TEST_METHOD_NOTES: In vitro cytotoxicity, IC50 by MTT method, PLA-801
Type: cell-based
EXPERIMENTAL_SETUP: PLA-801, MTT; read-out: IC50
Label fulfilled when IC50 is strictly below 700 µM; at or above that, label not fulfilled.

Study these solved cases before continuing.
# COMPOUND, ASSAY_SYSTEM, CATEGORY
data = [
    ("CCOC(=O)c1cc2c([nH]c3ccccc32)c(C)n1 [Compound 11, ethyl 1-methyl-β-carboline-3-carboxylate]", "PLA-801", "fulfilled"),
    ("COC(=O)c1cc2c([nH]c3ccccc32)c(-c2ccc(O)cc2)n1 [Compound 16]", "PLA-801", "not fulfilled"),
    ("OCc1cc2c(cn1)[nH]c1ccccc12 [Compound 24, 3-hydroxymethyl-β-carboline]", "PLA-801", "not fulfilled"),
    ("O=C(O)c1cc2c(cn1)[nH]c1ccccc12 [Compound 17, β-carboline-3-carboxylic acid]", "PLA-801", "fulfilled"),
    ("NNC(=O)c1cc2c(cn1)[nH]c1ccccc12 [Compound 20, β-carboline-3-carbohydrazine]", "PLA-801", "not fulfilled"),
]

Lab note: confirm whether the reported IC50 for this compound is below 700 µM, equality not counting. compound: COC(=O)c1cc2c([nH]c3ccccc32)c(-c2ccccc2)n1 [Compound 14]
not fulfilled

Lab note: confirm whether the reported IC50 for this compound is below 700 µM, equality not counting. compound: CCOC(=O)c1cc2c([nH]c3ccccc32)c(CC)n1 [Compound 12, ethyl 1-ethyl-β-carboline-3-carboxylate]
not fulfilled
